From: the supplement of paper PMC10065799

Molecular target: EPHB1 (UniProt P54762)
Sequence (P54762 whole entry, looked up): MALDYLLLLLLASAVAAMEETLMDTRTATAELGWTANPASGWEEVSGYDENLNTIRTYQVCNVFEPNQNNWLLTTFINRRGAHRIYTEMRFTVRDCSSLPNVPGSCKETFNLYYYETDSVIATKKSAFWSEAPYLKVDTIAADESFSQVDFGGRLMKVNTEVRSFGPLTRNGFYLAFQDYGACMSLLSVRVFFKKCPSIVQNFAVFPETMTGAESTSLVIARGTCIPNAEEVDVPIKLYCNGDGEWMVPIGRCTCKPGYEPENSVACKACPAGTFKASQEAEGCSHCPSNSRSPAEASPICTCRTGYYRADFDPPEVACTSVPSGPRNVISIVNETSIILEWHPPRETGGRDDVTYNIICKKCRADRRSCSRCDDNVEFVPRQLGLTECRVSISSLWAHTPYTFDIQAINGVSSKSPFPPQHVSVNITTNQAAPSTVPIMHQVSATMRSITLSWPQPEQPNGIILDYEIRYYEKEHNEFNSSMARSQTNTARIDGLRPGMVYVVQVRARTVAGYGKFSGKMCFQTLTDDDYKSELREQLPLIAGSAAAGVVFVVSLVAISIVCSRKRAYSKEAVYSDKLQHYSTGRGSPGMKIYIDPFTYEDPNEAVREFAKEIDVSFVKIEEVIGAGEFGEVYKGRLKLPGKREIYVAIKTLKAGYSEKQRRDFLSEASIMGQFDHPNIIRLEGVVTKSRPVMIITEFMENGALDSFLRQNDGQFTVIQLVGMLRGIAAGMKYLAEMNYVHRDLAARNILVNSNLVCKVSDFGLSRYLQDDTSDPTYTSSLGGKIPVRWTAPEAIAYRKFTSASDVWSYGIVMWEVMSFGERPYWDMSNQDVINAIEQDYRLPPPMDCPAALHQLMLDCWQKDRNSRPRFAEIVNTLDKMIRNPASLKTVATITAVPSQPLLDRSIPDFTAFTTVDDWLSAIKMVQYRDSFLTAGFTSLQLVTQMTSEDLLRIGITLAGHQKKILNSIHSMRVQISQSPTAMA
Test: phosphorylation enrichment, bacterial display (enrichment ratio); higher = better substrate or ligand; peptides without Tyr show the background;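 note: 11-residue human phosphosite peptides and single-mutation variants displayed on the E. coli surface, counted by deep sequencing, each peptide's frequency after selection divided by its frequency in the unselected input library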;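 note: frequency after pTyr selection over input frequency; kinase dosed for 20-30% of maximal phosphorylation in three min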
readout: phosphorylation enrichment
Write the number on its own, no unit after it.

Sample answers from the record:
# input sequence, target or test system, phosphorylation enrichment
measured = [
    ("IKGIRYLHHRG [GUCY2D_Y656]", "EPHB1 (UniProt P54762)", 0.423),
    ("CKSVHYDLVFL [COL22A1_Y37]", "EPHB1 (UniProt P54762)", 0.806),
    ("DCVRMYELVHR [GLE1_Y135_G130D]", "EPHB1 (UniProt P54762)", 7.46),
    ("HQPGEYIFHAE [FLT3_Y416]", "EPHB1 (UniProt P54762)", 0.887),
    ("ASYGPYTRVQS [FOXL2_Y258]", "EPHB1 (UniProt P54762)", 0.415),
]

Input AIGFEYSEINI [SIGLEC12_Y588_YF] . Output phosphorylation enrichment: 0.481

Input KIPGRYFETGS [PAX2_Y72_L69P_YF] . Output phosphorylation enrichment: 0.382

Input VSSSDYFSFVL [USP24_Y2138_Y2134S] . Output phosphorylation enrichment: 4.7

Input AFDNLYFWDQD [ERBB2_Y1221_YF] . Output phosphorylation enrichment: 1.42

Input TDLAFYLVCKG [ASL_Y376_R379C_YF] . Output phosphorylation enrichment: 0.79

Input FESPRYLQVHI [FANCA_Y488] . Output phosphorylation enrichment: 0.782

----------
Molecular target: EPHB2 (UniProt P29323)
Sequence (P29323 whole entry, looked up): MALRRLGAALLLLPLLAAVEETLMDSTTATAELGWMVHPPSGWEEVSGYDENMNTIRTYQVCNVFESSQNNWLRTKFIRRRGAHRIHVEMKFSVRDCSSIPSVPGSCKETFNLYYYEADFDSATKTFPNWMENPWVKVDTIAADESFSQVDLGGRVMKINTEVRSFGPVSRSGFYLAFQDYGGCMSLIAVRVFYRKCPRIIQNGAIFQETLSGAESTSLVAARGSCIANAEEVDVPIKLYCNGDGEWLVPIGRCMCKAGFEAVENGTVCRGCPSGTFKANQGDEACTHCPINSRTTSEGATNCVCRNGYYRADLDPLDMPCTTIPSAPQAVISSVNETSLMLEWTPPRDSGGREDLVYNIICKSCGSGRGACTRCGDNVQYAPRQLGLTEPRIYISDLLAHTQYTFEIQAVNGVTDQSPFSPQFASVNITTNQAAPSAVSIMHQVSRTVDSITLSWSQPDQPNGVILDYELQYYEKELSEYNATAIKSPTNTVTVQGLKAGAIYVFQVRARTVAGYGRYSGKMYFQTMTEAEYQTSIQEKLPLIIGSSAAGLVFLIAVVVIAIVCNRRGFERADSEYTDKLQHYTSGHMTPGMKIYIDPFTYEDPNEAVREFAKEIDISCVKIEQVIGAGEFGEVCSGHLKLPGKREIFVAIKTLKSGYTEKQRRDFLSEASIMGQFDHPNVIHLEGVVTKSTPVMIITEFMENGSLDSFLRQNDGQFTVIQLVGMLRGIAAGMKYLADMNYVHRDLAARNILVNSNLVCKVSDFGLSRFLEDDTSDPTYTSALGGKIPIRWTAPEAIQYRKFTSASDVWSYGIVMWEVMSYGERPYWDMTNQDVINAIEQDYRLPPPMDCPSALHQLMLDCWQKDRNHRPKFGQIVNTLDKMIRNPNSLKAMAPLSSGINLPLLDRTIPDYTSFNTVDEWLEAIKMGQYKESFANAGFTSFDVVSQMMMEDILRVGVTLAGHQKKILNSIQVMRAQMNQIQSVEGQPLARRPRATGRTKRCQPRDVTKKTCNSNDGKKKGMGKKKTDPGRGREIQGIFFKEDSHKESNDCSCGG
Assay: phosphorylation enrichment, bacterial display (enrichment ratio); higher = better substrate or ligand; peptides without Tyr show the background
The threshold is inclusive: phosphorylation enrichment of exactly 0.7 counts as class 1; values below receive class 0.

Some solved entries appear below for comparison.
# input sequence, assigned class
data = [
    ("KTDVRYRSLGG [DYSF_Y1858_H1857R]", "class 0"),
    ("HLVLNYGVCIC [JAK2_Y613_V617I]", "class 1"),
    ("YASALYRQRRS [FGF11_Y162]", "class 0"),
]

We next turn to a different sequence, shown below.
Q: Test whether the sequence GHEYIYVDRMQ [PDGFRB_Y581_P584R] records phosphorylation enrichment of 0.7 or higher.
A: class 0

----------
Test system: Fer (mouse)
Assay: phosphorylation enrichment, bacterial display (enrichment ratio); higher = better substrate or ligand; peptides without Tyr show the background
The threshold is inclusive: phosphorylation enrichment of exactly 0.5 counts as T; values below receive F.

Some solved entries appear below for comparison.
# input sequence, assigned class
records = [
    ("EFISENCGEII [EZH2_Y641_Y641N]", "F"),
    ("QKKEEYKMALY [F8_Y1990_R1985Q]", "T"),
    ("WAFNLYDINKD [KCNIP3_Y174]", "T"),
    ("RNFVRYVQGLK [VWF_Y1400]", "F"),
    ("CSHMFYGKQCC [ADAMTS16_Y1211_K1209M]", "T"),
]

Q: Test whether the sequence LREKVYASLEA [RXRA_Y397] records phosphorylation enrichment of 0.5 or higher.
A: T

Q: Test whether the sequence TMEDSYRKQVV [KRAS_Y40_I36M] records phosphorylation enrichment of 0.5 or higher.
A: F

Q: Test whether the sequence WQLEIYRASRP [ERCC4_Y594_R589W] records phosphorylation enrichment of 0.5 or higher.
A: F

Q: Test whether the sequence SLEKSYELPDG [ACTA1_Y242] records phosphorylation enrichment of 0.5 or higher.
A: T
